system: KRAS PDC tumor spheroids (HUVEC+MSC), viability; experiment: Anticancer human tumor 254851-301-R-J1-PDC patient-derived colon carcinoma cell line growth inhibition [KRAS2]; conditions: second compound 3.16 µM; first compound 10 µM; active compounds read low;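 further: spheroids exposed to compounds for seven days before readout; 100% = DMSO vehicle control luminescence of the spheroids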
PROPERTY MEASURED: viability, T/C (%)
Enter your answer as a number in %; do not include the unit.

Inquiry: Indicate the recorded viability, T/C value for this compound: COc1cc2nccc(Oc3ccc(NC(=O)C4(C(=O)Nc5ccc(F)cc5)CC4)cc3)c2cc1OC + C=CC(=O)N1CCN(c2nc(OCC3CCCN3C)nc3c2CCN(c2cccc4cccc(C)c24)C3)CC1CC#N
Reply text: 0.18

Inquiry: Assign viability, T/C to the following record: CCNC(=O)CC1N=C(c2ccc(Cl)cc2)c2cc(OC)ccc2-n2c(C)nnc21 (stereo not given) + CC1OCC2(CCN(c3cnc(Sc4ccnc(N)c4Cl)c(N)n3)CC2)C1N
Reply text: 42

Inquiry: Supply viability, T/C value. Item: Cn1nccc1Nc1nccc(-c2cc3c(s2)C(C)(C)N(CCN2CCOCC2)C3=O)n1 + C=CC(=O)N1CCN(c2nc(=O)n(-c3c(C)ccnc3C(C)C)c3nc(-c4c(O)cccc4F)c(F)cc23)C(C)C1
Reply text: 3.74

Inquiry: Read off the recorded viability, T/C for CC(C)NCC(C(=O)N1CCN(c2ncnc3c2C(C)CC3O)CC1)c1ccc(Cl)cc1 (stereo not given) + CC1OCC2(CCN(c3cnc(Sc4ccnc(N)c4Cl)c(N)n3)CC2)C1N
Reply text: 70.8

Inquiry: Retrieve viability, T/C measured for CC1OCC2(CCN(c3cnc(Sc4ccnc(N)c4Cl)c(N)n3)CC2)C1N (stereo not given) + C=CC(=O)N1CCN(c2nc(=O)n(-c3c(C)ccnc3C(C)C)c3nc(-c4c(O)cccc4F)c(F)cc23)C(C)C1 and print it.
Reply text: 65.6
